Assay: inhibitors of TNFa-induced NFkB p65 translocation, primary screen, imaging, HUVEC, MLSMR starter and 10KST1 sets (AID 438);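 further: compound added about 3h40 before a 20 min TNFalpha stimulation; signal is the nuclear over cytoplasmic p65 intensity ratio per well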
Settings: HUVEC TNFa-induced p65 nuclear translocation; at 2 µM, hits give high values, 0% TNFa-plus-vehicle, 100% no-TNFa wells
Reported values of inhibition for individual entries
measurement.name: inhibition (%)

- molecule: "O=C1CC(c2ccco2)CC(O)=C1C=NCC1NCCc2ccccc21 (stereo unspecified)"
  measurement.name: "inhibition"
  recorded.measurement: -2.8
- molecule: "Cn1c(SCC(N)=O)nnc1C1CCN(S(=O)(=O)c2ccccc2C(F)(F)F)CC1"
  measurement.name: "inhibition"
  recorded.measurement: -12.3
- molecule: "Cc1ccccc1NC(=O)c1ccccc1"
  measurement.name: "inhibition"
  recorded.measurement: 1.7
- molecule: "O=C(CN1CCC(n2nnc3cc(F)ccc32)CC1)Nc1ccc2c(c1)CCC2"
  measurement.name: "inhibition"
  recorded.measurement: -57.1
- molecule: "CCOc1ccccc1N1C(=O)CC(Sc2ncccc2C(=O)O)C1=O (stereo unspecified)"
  measurement.name: "inhibition"
  recorded.measurement: -0.7
- molecule: "CCCCNC(=O)c1c(C)cc(=O)oc1C"
  measurement.name: "inhibition"
  recorded.measurement: -21.8
- molecule: "COC(=O)c1cc(NC(=O)C2COc3ccccc3O2)cc(C(=O)OC)c1 (stereo unspecified)"
  measurement.name: "inhibition"
  recorded.measurement: 6.8
- molecule: "N#Cc1cn(CC(=O)N2CCCC2)c2ccccc12"
  measurement.name: "inhibition"
  recorded.measurement: 3
- molecule: "CCOc1ccc(NC(=O)CN(C)S(=O)(=O)c2cccs2)cc1"
  measurement.name: "inhibition"
  recorded.measurement: -12
- molecule: "COc1ccc(OC)c(NC(=O)c2cn(C)c(=O)c3cc(OC)c(OC)cc23)c1"
  measurement.name: "inhibition"
  recorded.measurement: -20.3
- molecule: "Cn1cc(C(=O)NC2CCCCCCC2)c(=O)c2cc(S(=O)(=O)N3CCCC3)ccc21"
  measurement.name: "inhibition"
  recorded.measurement: 3.5

----------
Assay: blockers of RIG-like receptor reporter activation – cell-based, Sendai virus stimulus, luciferase, 10K MLSCN set, TLR/RLR signaling modifier project, primary screen (AID 602276);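 further: firefly luciferase from ISG56 promoter only with Renilla not read in this screen; 0% = Sendai virus plus DMSO and 100% = medium plus DMSO without virus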
Details: HEK293 RL24 IRF3 luciferase reporter, at 10 µM, hits give high values
Where inhibition equals or exceeds 10%, the correct label is Condition met; where it does not, the label is Condition not met.

- molecule: "COc1ccc(S(=O)(=O)n2ccnc2)c2cccnc12"
  assigned.class: "Condition not met"
- molecule: "O=C(Cn1c(=O)[nH]n(-c2ccccc2)c1=O)N1CCCc2ccccc21"
  assigned.class: "Condition met"
- molecule: "FC(F)(F)C(F)(F)C(F)(F)c1nnc2ccc(N3CCOCC3)nn12"
  assigned.class: "Condition not met"
- molecule: "CC(C)C[C@H]1C(=O)N2CCC[C@H]2[C@]2(O)O[C@](NC(=O)[C@@H]3C=C4c5cccc6[nH]c(Br)c(c56)CC4N(C)C3)(C(C)C)C(=O)N12 (stereo not given in full)"
  assigned.class: "Condition not met"
- molecule: "Cc1ccc(OCC(=O)N2CCN(C(=O)CCC3CCCC3)CC2)cc1"
  assigned.class: "Condition met"

----------
Experiment: reduction of polyQ htt aggregates in cells – imaging, exon1htt(103Q)mCFP cells, high-content imaging, primary screen (AID 483);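 further: compound exposure lasted 3 days before fixation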
Conditions: exon1htt(103Q)mCFP cell line, aggregate imaging, at 2 µM; hits give high values

- compound: "CCOc1ccccc1NC(=O)C1CCCN(C(=O)NCc2ccccc2)C1 (stereo unspecified)"
  inhibition of aggregation / %: -15.4
- compound: "CC(C)C(=O)Nc1nnc(CCc2nnc(NC(=O)C(C)C)s2)s1"
  inhibition of aggregation / %: 9.8
- compound: "CCOC(=O)CSc1nc2ccccc2c(=O)n1NC(=O)c1ccccc1"
  inhibition of aggregation / %: -2
- compound: "N[C@@H](Cc1cc(I)c(Oc2ccc(O)c(I)c2)c(I)c1)C(=O)O"
  inhibition of aggregation / %: 2.4
- compound: "Cc1cc(C(=O)N2CCN(C(c3ccccc3)c3ccccc3)CC2)no1"
  inhibition of aggregation / %: 32.7
- compound: "O=C(CCCn1c(=O)c2sccc2n(Cc2ccc(F)cc2)c1=O)NCc1ccco1"
  inhibition of aggregation / %: 3
- compound: "C=C(c1ccc(O)cc1)c1ccc(O)cc1"
  inhibition of aggregation / %: -1.6
- compound: "Cc1nc(CNS(=O)(=O)c2ccc3c(c2)OCCO3)cs1"
  inhibition of aggregation / %: 10.1
- compound: "COc1ccc(Cn2c(C)nc3c(c2=O)c2nc4ccccc4nc2n3Cc2ccco2)cc1"
  inhibition of aggregation / %: -1.8
- compound: "CCOC(=O)N1CCN(S(=O)(=O)c2cc(Cl)c(OC)cc2Cl)CC1"
  inhibition of aggregation / %: -8.2
- compound: "O=c1cc(-c2ccco2)oc2ccc(Cl)cc12"
  inhibition of aggregation / %: 19.7
- compound: "CCOC(=O)C1CCN(C(=O)Nc2ccc3snnc3c2)CC1"
  inhibition of aggregation / %: 5
- compound: "CSc1ccccc1NS(=O)(=O)c1ccccc1"
  inhibition of aggregation / %: -14.6
- compound: "Cn1c(=O)c2c(ncn2CC(O)CO)n(C)c1=O (stereo unspecified)"
  inhibition of aggregation / %: 15
- compound: "CCCN1C(=O)SC(CC(=O)Nc2ccc(Br)cc2)C1=O (stereo unspecified)"
  inhibition of aggregation / %: -2.4
- compound: "COc1ccccc1C(=O)N1CCCC(c2nc(-c3cc(OC)c(OC)c(OC)c3)no2)C1 (stereo unspecified)"
  inhibition of aggregation / %: -0.4
- compound: "C/C(=N\\O)c1ccc2c3c([nH]c2c1)CCCC3"
  inhibition of aggregation / %: 6.7
- compound: "CCOc1ccc(CN2CCN(c3cc(C)nc4c5c(C)cc(C)nc5nn34)CC2)cc1"
  inhibition of aggregation / %: 5
- compound: "O=C(Nc1ncnc2sc3c(c12)CCCCC3)c1ccco1"
  inhibition of aggregation / %: 32.4
- compound: "Cc1ccc(CNC(=O)CSc2n[nH]c(N)n2)cc1"
  inhibition of aggregation / %: 20
- compound: "O=S(=O)(NCCc1ccccc1F)c1cccc(S(=O)(=O)N2CCOCC2)c1"
  inhibition of aggregation / %: 6.4
- compound: "COc1ccc(-c2cc3nc(C)c(CCC(=O)NCc4ccco4)c(C)n3n2)c(OC)c1"
  inhibition of aggregation / %: -18.2
- compound: "CCCCCCC(=O)c1c(C)[nH]c(C(=O)OCC)c1C"
  inhibition of aggregation / %: 14.4
- compound: "COc1cc(C(=O)N2CCCC(c3nc(-c4cccs4)no3)C2)cc(OC)c1OC (stereo unspecified)"
  inhibition of aggregation / %: 4.4
- compound: "C=CCN1C(=O)/C(=C2\\SC(N3CCOCC3)=NC2=O)c2cc(Br)ccc21"
  inhibition of aggregation / %: 22.3
- compound: "Cc1onc(-c2c(Cl)cccc2Cl)c1C(=O)NCCN1CCOCC1"
  inhibition of aggregation / %: -1.4
- compound: "CSc1nnc2n(CCc3ccccc3)c(=O)c3c4c(sc3n12)CCCC4"
  inhibition of aggregation / %: -2.1
- compound: "CC1C(O)=C(c2nc3ccccc3[nH]2)C(=N)N1c1ccccc1 (stereo unspecified)"
  inhibition of aggregation / %: -12.9
- compound: "C[C@H]1C[C@H]2[C@@H]3CCC4=CC(=O)C=C[C@]4(C)[C@@]3(Cl)[C@@H](O)C[C@]2(C)[C@@]1(O)C(=O)CO"
  inhibition of aggregation / %: -11.8
- compound: "COCCn1c(=O)[nH]c2cc(C(=O)NCCCN3CCN(c4ccc(F)cc4)CC3)ccc2c1=O"
  inhibition of aggregation / %: -5.1
- compound: "Nc1nc(CN2CCN(Cc3ccc4c(c3)OCO4)CC2)nc(Nc2ccccc2)n1"
  inhibition of aggregation / %: -1.8
- compound: "CCCCC(CC)C(=O)Nc1ccccc1C#N (stereo unspecified)"
  inhibition of aggregation / %: -12.4
- compound: "COc1ccccc1-n1nnnc1SCc1ccccc1"
  inhibition of aggregation / %: 6.5
- compound: "COCCSc1ccccc1C(=O)Nc1cc(C)on1"
  inhibition of aggregation / %: -4.3
- compound: "CCOC(=O)Nc1c(C(=O)OC)[nH]c2cccc(OC)c12"
  inhibition of aggregation / %: -15.7
- compound: "CCOc1ccc2cc(C#N)c(SCC(=O)N3CCOCC3)nc2c1"
  inhibition of aggregation / %: 11.7
- compound: "Cc1ccc(O)c(C(=O)c2cc(C#N)c(=O)n(CC3CCCO3)c2)c1 (stereo unspecified)"
  inhibition of aggregation / %: 33.7
- compound: "COC(=O)c1cccc(S(=O)(=O)N2CCN(c3nc4ccccc4s3)CC2)c1"
  inhibition of aggregation / %: 6.2
- compound: "CC(=O)SCC(=O)N=c1sc2cc(F)ccc2n1C"
  inhibition of aggregation / %: -2.8
- compound: "CC1CCN(C(=S)c2ccccc2O)CC1"
  inhibition of aggregation / %: 7.3
- compound: "CC1(C)CC(=O)c2cnc(NC(=O)CSc3nc4ccccc4o3)nc2C1"
  inhibition of aggregation / %: -24.6
- compound: "CCOC(=O)c1nnn(CC(=O)Nc2cccc(OC)c2)c1C(=O)OCC"
  inhibition of aggregation / %: 20.4
- compound: "CCc1oc2ccccc2c1C(=O)c1cc(Br)c(O)c(Br)c1"
  inhibition of aggregation / %: -4.4
- compound: "COc1cc(C(N)=O)ccc1OCc1ccccc1"
  inhibition of aggregation / %: -5.1
- compound: "CCOC(=O)/C=C(\\C)Sc1cc(=O)oc2ccccc12"
  inhibition of aggregation / %: -8.4
- compound: "Cc1noc(C)c1S(=O)(=O)NCCN1CCN(c2ccccc2)CC1"
  inhibition of aggregation / %: -8.9

All figures here come from PubChem BioAssay.
